# tested system: TSLP (Homo sapiens, UniProt Q969D9)
# Sequence (Q969D9 29-159): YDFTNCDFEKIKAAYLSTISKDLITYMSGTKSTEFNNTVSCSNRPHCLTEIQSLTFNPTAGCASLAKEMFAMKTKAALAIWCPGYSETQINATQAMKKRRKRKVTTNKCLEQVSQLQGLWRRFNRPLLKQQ
# experimental protocol: Human peripheral blood mononuclear cell assay (TSLP-induced CCL17/TARC)
# Format: cell-based
# Parameters: host or cells: added to human PBMCs from healthy donors
# assay setup: read-out: CCL17 % Inhibition @ 10 μM, […] TSLP
readout name: inhibition at 10 µM (%)
Report the value in % with no unit label.

Need inhibition at 10 µM, item CC(=O)N[C@H]1CSCCC(=O)N2CN3CN(C2)C(=O)CCSC[C@H](NC(=O)[C@H](CC(=O)O)NC(=O)[C@H](CCC(=O)O)NC(=O)[C@H](CC(C)C)NC(=O)[C@H](Cc2c[nH]c4ccccc24)NC(=O)[C@H](CCC(N)=O)NC1=O)C(=O)N[C@@H](Cc1c[nH]c2ccccc12)C(=O)N[C@@H](CCCNC(=N)N)C(=O)NCC(=O)N[C@@H](Cc1ccc(Cl)cc1)C(=O)N[C@H](C(N)=O)CSCCC3=O [Example 14, Ac-(SEQ ID NO: 12)]
14

---

# tested system: TSLP (Homo sapiens, UniProt Q969D9)
# experimental protocol: Human peripheral blood mononuclear cell assay (TSLP-induced CCL17/TARC)
# Format: cell-based
# Design: host or cells: added to human PBMCs from healthy donors
# assay setup: read-out: CCL17 % Inhibition @ 10 μM, […] TSLP
readout name: inhibition at 10 µM (%)
Report the value in % with no unit label.

Need inhibition at 10 µM, item CC(=O)N[C@@H](C)C(=O)N[C@H]1CSCCC(=O)N2CN3CN(C2)C(=O)CCSC[C@@H](C(=O)N2CCC[C@H]2C(=O)N[C@@H](CC(C)C)C(=O)N[C@@H](CC(=O)O)C(N)=O)NC(=O)[C@H](Cc2ccccc2)NC(=O)CNC(=O)[C@H](CCCNC(=N)N)NC(=O)[C@H](Cc2c[nH]c4ccccc24)NC(=O)[C@H](CSCCC3=O)NC(=O)[C@H](CC(=O)O)NC(=O)[C@H](CCC(=O)O)NC(=O)[C@H](CC(C)C)NC(=O)[C@H](Cc2c[nH]c3ccccc23)NC(=O)[C@H](CCC(N)=O)NC1=O [Example 53, Ac-A-(SEQ ID NO: 38)-PLD]
-2

Need inhibition at 10 µM, item CC(=O)N[C@H]1CSCCC(=O)N2CN3CN(C2)C(=O)CCSC[C@H](NC(=O)[C@H](CC(=O)O)NC(=O)[C@H](CCC(=O)O)NC(=O)[C@H](CC(C)C)NC(=O)[C@H](Cc2c[nH]c4ccccc24)NC(=O)[C@H](CCC(N)=O)NC1=O)C(=O)N[C@@H](Cc1c[nH]c2ccccc12)C(=O)N[C@@H](CCCNC(=N)N)C(=O)NCC(=O)N[C@@H](Cc1ccccc1)C(=O)N[C@H](C(N)=O)CSCCC3=O [Example 79, Ac-(SEQ ID NO: 38)]
-18

---

# tested system: TSLP (Homo sapiens, UniProt Q969D9)
# experimental protocol: Human TSLP Surface Plasmon Resonance (SPR) binding assay
# assay setup: biotinylated human TSLP immobilized on streptavidin chip; 20° C.; steady-state or kinetic 1:1 fit; read-out: hTSLP SPR Kd
readout name: Kd (µM)
Report the value in µM with no unit label.

Need Kd, item CC(=O)N[C@H]1CSCCC(=O)N2CN3CN(C2)C(=O)CCSC[C@H](NC(=O)[C@H](CC(=O)O)NC(=O)[C@H](CCC(=O)O)NC(=O)[C@H](CC(C)C)NC(=O)[C@H](Cc2c[nH]c4ccccc24)NC(=O)[C@H](CCC(N)=O)NC1=O)C(=O)N[C@@H](Cc1c[nH]c2ccccc12)C(=O)N[C@@H](CCCNC(=N)N)C(=O)NCC(=O)N[C@@H](Cc1c(F)c(F)c(F)c(F)c1F)C(=O)N[C@H](C(N)=O)CSCCC3=O [Example 153, Ac-(SEQ ID NO: 112)]
2.7

Data origin, for the record: patent US11866518B2
